TARGET OF ASSAY: T1, hexahistidine-PAP-myc (UniProt Q61183-1 1-739)
T1 construct: poly(A) polymerase (PAP), NM_011112, in a pQE expression vector; also called (His)6-PAP-myc; poly(A) polymerase; source: bacterially expressed (E. coli STBL2 or Rosetta(DE3)pLacI), purified; not shown: His6, N-terminal, kept; myc, C-terminal, kept
T1 sequence (Q61183 whole entry): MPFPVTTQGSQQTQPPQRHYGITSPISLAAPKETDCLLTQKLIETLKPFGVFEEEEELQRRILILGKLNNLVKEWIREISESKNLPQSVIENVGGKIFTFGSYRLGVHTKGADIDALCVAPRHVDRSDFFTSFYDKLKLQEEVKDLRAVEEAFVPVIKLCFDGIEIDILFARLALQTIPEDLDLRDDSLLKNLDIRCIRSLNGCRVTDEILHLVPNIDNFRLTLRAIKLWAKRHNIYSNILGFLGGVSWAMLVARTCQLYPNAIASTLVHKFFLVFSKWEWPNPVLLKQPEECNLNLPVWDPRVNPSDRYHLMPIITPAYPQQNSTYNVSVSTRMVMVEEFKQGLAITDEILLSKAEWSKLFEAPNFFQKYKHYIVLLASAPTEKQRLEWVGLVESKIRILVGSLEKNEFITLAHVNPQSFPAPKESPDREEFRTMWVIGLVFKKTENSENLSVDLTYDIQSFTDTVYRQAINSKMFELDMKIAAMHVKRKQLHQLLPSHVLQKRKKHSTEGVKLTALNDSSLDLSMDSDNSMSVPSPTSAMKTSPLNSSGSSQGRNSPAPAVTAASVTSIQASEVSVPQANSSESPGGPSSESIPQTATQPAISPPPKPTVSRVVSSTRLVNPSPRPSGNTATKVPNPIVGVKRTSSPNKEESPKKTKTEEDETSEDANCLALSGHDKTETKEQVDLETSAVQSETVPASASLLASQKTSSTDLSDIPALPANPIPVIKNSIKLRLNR
METHOD SUMMARY: co-IP; 0.5 µg bacterially expressed GST-TTP construct and 0.5 µg (His)6-PAP-myc with anti-myc agarose in 10 mM Tris pH 7.0, 0.15 M NaCl, 1 mM MgCl2, 0.7 mM ZnCl2, 0.1% NP-40, 4°C overnight; blots with anti-myc and anti-GST
EXPERIMENTAL PARAMETERS: both partners purified

BINDER	binding result
N-terminally glutathione S-transferase-tagged wild-type TTP (natural protein, mouse, UniProt P22893 2-319, looked up, also called WT GST-TTP; GST-TTP; source: E. coli STBL2 or Rosetta(DE3)pLacI, purified (glutathione-agarose); not shown: GST, N-terminal, kept) DLSAIYESLQSMSHDLSSDHGGTESLGGLWNINSDSIPSGVTSRLTGRSTSLVEGRSCGWVPPPPGFAPLAPRPGPELSPSPTSPTATPTTSSRYKTELCRTYSESGRCRYGAKCQFAHGLGELRQANRHPKYKTELCHKFYLQGRCPYGSRCHFIHNPTEDLALPGQPHVLRQSISFSGLPSGRRSSPPPPGFSGPSLSSCSFSPSSSPPPPGDLPLSPSAFSAAPGTPVTRRDPNQACCPSCRRSTTPSTIWGPLGGLARSPSAHSLGSDPDDYASSGSSLGGSDSPVFEAGVFGPPQTPAPPRRLPIFNRISVSE	binds
GST-TTP@2-319(F118N) (natural protein, mouse, UniProt P22893 2-319, looked up, source: E. coli STBL2 or Rosetta(DE3)pLacI, purified (glutathione-agarose); not shown: GST, N-terminal, kept) DLSAIYESLQSMSHDLSSDHGGTESLGGLWNINSDSIPSGVTSRLTGRSTSLVEGRSCGWVPPPPGFAPLAPRPGPELSPSPTSPTATPTTSSRYKTELCRTYSESGRCRYGAKCQNAHGLGELRQANRHPKYKTELCHKFYLQGRCPYGSRCHFIHNPTEDLALPGQPHVLRQSISFSGLPSGRRSSPPPPGFSGPSLSSCSFSPSSSPPPPGDLPLSPSAFSAAPGTPVTRRDPNQACCPSCRRSTTPSTIWGPLGGLARSPSAHSLGSDPDDYASSGSSLGGSDSPVFEAGVFGPPQTPAPPRRLPIFNRISVSE	binds
GST-TTPΔ95–158 (natural protein, mouse, UniProt P22893 2-319, looked up, also called TZF domain-deleted TTP mutant; source: E. coli STBL2 or Rosetta(DE3)pLacI, purified (glutathione-agarose); not shown: GST, N-terminal, kept) DLSAIYESLQSMSHDLSSDHGGTESLGGLWNINSDSIPSGVTSRLTGRSTSLVEGRSCGWVPPPPGFAPLAPRPGPELSPSPTSPTATPTTSSNPTEDLALPGQPHVLRQSISFSGLPSGRRSSPPPPGFSGPSLSSCSFSPSSSPPPPGDLPLSPSAFSAAPGTPVTRRDPNQACCPSCRRSTTPSTIWGPLGGLARSPSAHSLGSDPDDYASSGSSLGGSDSPVFEAGVFGPPQTPAPPRRLPIFNRISVSE	binds

Data provenance: paper PMC3406032
